# experimentalProtocol: Stability of cannabinoid and Vitamin E components of Beverage 1 (AB White) stored at 8° C. and 21-25° C., LCMSMS over 570 days
# Type: physicochemical
# measurementSetup: beverage stored at 8° C., day 390
For each record, write down the corresponding Stability in AB White, 8° C. (content by LCMSMS).
Give the number; µg/mL is assumed, so skip it.

Please look up its Stability in AB White, 8° C. (content by LCMSMS): C=C(C)[C@@H]1CCC(C)=C[C@H]1c1c(O)cc(CCC)cc1O
0.143

Please look up its Stability in AB White, 8° C. (content by LCMSMS): CCCCCc1cc(O)c(C/C=C(\C)CCC=C(C)C)c(O)c1
4.68

Please look up its Stability in AB White, 8° C. (content by LCMSMS): CCCCCc1cc(O)c2c(c1)OC(C)(C)[C@@H]1CCC(C)=C[C@@H]21 [D9 THC, delta-9-tetrahydrocannabinol, reference compound]
11.85

Please look up its Stability in AB White, 8° C. (content by LCMSMS): C=C(C)[C@@H]1CCC(C)=C[C@H]1c1c(O)cc(CCCCC)cc1O [CBD, cannabidiol, reference compound]
27.50

====

For each record, write down the corresponding Stability in AB White, 21-25° C. (content by LCMSMS).
# experimentalProtocol: Stability of cannabinoid and Vitamin E components of Beverage 1 (AB White) stored at 8° C. and 21-25° C., LCMSMS over 570 days
# Type: physicochemical
# measurementSetup: beverage stored at 21-25° C., day 450
Give the number; µg/mL is assumed, so skip it.

Please look up its Stability in AB White, 21-25° C. (content by LCMSMS): CCCCCc1cc(O)c(C/C=C(\C)CCC=C(C)C)c(O)c1
4.73

Please look up its Stability in AB White, 21-25° C. (content by LCMSMS): CCCc1cc(O)c2c(c1)OC(C)(C)[C@@H]1CCC(C)=C[C@@H]21 [THCV, delta-9-tetrahydrocannabivarin]
3.47

Please look up its Stability in AB White, 21-25° C. (content by LCMSMS): CCCCCc1cc2c(c(O)c1C(=O)O)[C@@H]1C=C(C)CC[C@H]1C(C)(C)O2 [D9 THCA, delta-9-tetrahydrocannabinolic acid]
0.921

Please look up its Stability in AB White, 21-25° C. (content by LCMSMS): C=C(C)[C@@H]1CCC(C)=C[C@H]1c1c(O)cc(CCC)cc1O
0.144

Please look up its Stability in AB White, 21-25° C. (content by LCMSMS): CCCCCc1cc(O)c2c(c1)OC(C)(C)c1ccc(C)cc1-2
2.61

Please look up its Stability in AB White, 21-25° C. (content by LCMSMS): C=C(C)[C@@H]1CCC(C)=C[C@H]1c1c(O)cc(CCCCC)c(C(=O)O)c1O
1.70

Please look up its Stability in AB White, 21-25° C. (content by LCMSMS): CCCCCc1cc(O)c2c(c1)OC1(C)CCC3C1C2C3(C)C (stereo not drawn)
0.521

Please look up its Stability in AB White, 21-25° C. (content by LCMSMS): CCCCCc1cc(O)c2c(c1)OC(C)(CCC=C(C)C)C=C2 (stereo not drawn)
0.310

Please look up its Stability in AB White, 21-25° C. (content by LCMSMS): CCCCCc1cc(O)c2c(c1)OC(C)(C)[C@@H]1CCC(C)=C[C@@H]21 [D9 THC, delta-9-tetrahydrocannabinol, reference compound]
11.7
